molecular target: WT STING (Homo sapiens, UniProt Q86WV6, H232R); assay: 293T WT STING standard reporter assay; type: cell-based; design: host or cells: 293T (ATCC CRL-3216), stably transfected, with 4xISRE firefly luciferase reporter; conditions: 293T wtSTING-FL cells, ISRE firefly luciferase; no digitonin; 7 hours with compounds; 8-point curve
Sequence (Q86WV6 whole entry H232R): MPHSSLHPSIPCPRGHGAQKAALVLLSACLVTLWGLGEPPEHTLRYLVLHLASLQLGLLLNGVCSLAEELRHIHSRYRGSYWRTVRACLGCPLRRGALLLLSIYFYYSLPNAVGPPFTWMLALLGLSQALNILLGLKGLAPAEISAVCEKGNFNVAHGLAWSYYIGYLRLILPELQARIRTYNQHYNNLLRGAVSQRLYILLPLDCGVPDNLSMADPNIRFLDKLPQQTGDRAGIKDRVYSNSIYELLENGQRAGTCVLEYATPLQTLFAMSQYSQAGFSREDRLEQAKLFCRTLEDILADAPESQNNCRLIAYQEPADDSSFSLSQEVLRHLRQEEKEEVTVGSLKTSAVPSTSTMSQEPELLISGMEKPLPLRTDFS
measured endpoint: EC50 (nM)

A: CCC(C)(C)C(=O)OCOP1(=O)OC[C@H]2O[C@@H](n3cnc4c(N)ncnc43)[C@H](F)[C@@H]2OP(=O)(OCOC(=O)C(C)(C)CC)OC[C@H]2C[C@@H](n3cnc4c(N)ncnc43)[C@H](F)[C@@H]2O1 (single isomer, unassigned) [Compound 144c]
B: CCCCCCCC(=O)OCOP1(=O)OC[C@H]2O[C@@H](n3cnc4c(N)ncnc43)[C@H](F)[C@@H]2OP(=O)(OCOC(=O)CCCCCCC)OC[C@H]2C[C@@H](n3cnc4c(N)ncnc43)[C@H](F)[C@@H]2O1 (single isomer, unassigned) [Compound 146a]
QUERY: # query: argmin of EC50 over A and B Give the label under which the chosen entry appears.
RESULT: B
(B: 0.1 nM, A: 1 nM)

---

test system: peripheral blood mononuclear cells (PBMC); assay: Peripheral blood mononuclear cell (PBMC) assay; format: cell-based; details: PBMC, interferon-gamma level; 1 h with compounds, washed, 15 hour incubation; average of one to four donors; read-out: PBMC EC50 (μM) IFN-γ
measured endpoint: EC50 (µM)
# unit: µM | format: bare number

Example entries and their recorded answers appear below.
QUERY: Would you kindly share the measured EC50 for CC(C)(C)C(=O)OCOP1(=O)OC[C@H]2C[C@@H](n3cnc4c(N)ncnc43)C(F)[C@H]2OP(=O)(OCOC(=O)C(C)(C)C)OC[C@H]2O[C@@H](n3cnc4c(N)ncnc43)[C@@H](F)C2O1 (single isomer, unassigned) [Compound 136d] ?
RESULT: 2.4

QUERY: Would you kindly share the measured EC50 for Nc1ncnc2c1ncn2[C@@H]1C[C@@H]2COP(=O)(S)O[C@@H]3[C@@H](COP(=O)(S)O[C@H]2[C@H]1F)C[C@@H](n1cnc2c(N)ncnc21)[C@@H]3F (single isomer, unassigned) [Compound 128b] ?
RESULT: 6.5

QUERY: Would you kindly share the measured EC50 for CC(C)(C)C(=O)OCOP1(=O)OC[C@H]2C[C@@H](n3cnc4c(N)ncnc43)C(F)C2OP(=O)(OCOC(=O)C(C)(C)C)OC[C@H]2C[C@@H](n3cnc4c(N)ncnc43)C(F)C2O1 (single isomer, unassigned) [Compound 138a] ?
RESULT: 1.5

Please turn your attention to the following entry.
QUERY: Would you kindly share the measured EC50 for Nc1ncnc2c1ncn2[C@@H]1C[C@@H]2COP(=O)(O)OC3C(F)[C@H](n4cnc5c(N)ncnc54)O[C@@H]3COP(=O)(O)OC2C1F (stereo partly shown) ?
RESULT: 36.6

---

target: WT STING (Homo sapiens, UniProt Q86WV6, H232R); experiment: Digitonin assay using 293T wtSTING-FL reporter cells; type: cell-based; set-up: host or cells: 293T (ATCC CRL-3216), stably transfected, with 4xISRE firefly luciferase reporter; conditions: 293T wtSTING-FL cells, ISRE firefly luciferase; compounds in Digitonin buffer 30 minutes, then 5 hours; 8-point curve
measured endpoint: EC50 (nM)

Example entries and their recorded answers appear below.
QUERY: Would you kindly share the measured EC50 for Nc1ncnc2c1ncn2[C@@H]1C[C@@H]2COP(=O)(O)OC3C(F)[C@H](n4cnc5c(N)ncnc54)O[C@@H]3COP(=O)(S)OC2C1F (single isomer, unassigned) [Compound 141b] ?
RESULT: 50

QUERY: Would you kindly share the measured EC50 for Nc1ncnc2c1ncn2[C@@H]1C[C@@H]2COP(=O)(O)OC3C(F)[C@H](n4cnc5c(N)ncnc54)C[C@@H]3COP(=O)(O)OC2C1F (stereo partly drawn) ?
RESULT: 50

A: Nc1ncnc2c1ncn2[C@@H]1C[C@@H]2COP(=O)(O)OC3C(O)[C@H](n4cnc5c(N)ncnc54)C[C@@H]3COP(=O)(O)OC2C1O (stereo partly drawn)
B: Nc1nc2c(ncn2[C@@H]2O[C@@H]3COP(=O)(O)OC4C(O)[C@H](n5cnc6c(N)ncnc65)C[C@@H]4COP(=O)(O)OC3C2O)c(=O)[nH]1 (stereo partly drawn) [Compound 108]
C: Nc1ncnc2c1ncn2[C@@H]1O[C@@H]2COP(=O)(O)OC3C(O)[C@H](n4cnc5c(=O)[nH]cnc54)C[C@@H]3COP(=O)(O)OC2C1F (stereo partly drawn)
D: Nc1nc2c(ncn2[C@@H]2C[C@@H]3COP(=O)(O)OC4C(O)[C@H](n5cnc6c(N)ncnc65)O[C@@H]4COP(=O)(O)OC3C2O)c(=O)[nH]1 (stereo partly drawn)
QUERY: List from greatest to least EC50. Show the ranking through the labels, in the order asked for.
RESULT: D, A, B, C
(D: 3600 nM, A: 1200 nM, B: 40 nM, C: 10 nM)

---

Target: WT STING (Homo sapiens, UniProt Q86WV6, H232R)
Assay: 293T WT STING standard reporter assay
Format: cell-based
Design: host or cells: 293T (ATCC CRL-3216), stably transfected, with 4xISRE firefly luciferase reporter
Details: 293T wtSTING-FL cells, ISRE firefly luciferase; no digitonin; 7 hours with compounds; 8-point curve
Description: Two complementary oligonucleotides of the sequence […] […] The medium was removed next day and three-fold serial dilutions of compounds in 100 μl medium were added to the cells. […] After 50 μl of the medium was removed, 30 μl of ONE-Glo™ Luciferase Assay System reagent (cat. #E6120, Promega, Madison, USA) was added to each well and luminescence was read on Synergy H1 (Biotek, Winooski, USA).
measured endpoint: EC50 (nM)

Example entries and their recorded answers appear below.
QUERY: Would you kindly share the measured EC50 for CCC(C)(C)C(=O)OCOP1(=O)OC[C@H]2O[C@@H](n3cnc4c(N)ncnc43)[C@H](F)[C@@H]2OP(=O)(OCOC(=O)C(C)(C)CC)OC[C@H]2C[C@@H](n3cnc4c(N)ncnc43)[C@H](F)[C@@H]2O1 (single isomer, unassigned) [Compound 144a] ?
RESULT: 20

QUERY: Would you kindly share the measured EC50 for CCC(C)(C)C(=O)OCOP1(=O)OC[C@H]2O[C@@H](n3cnc4c(N)ncnc43)C(F)C2OP(=O)(OCOC(=O)C(C)(C)CC)OC[C@H]2C[C@@H](n3cnc4c(N)ncnc43)C(F)C2O1 (some centres unmarked) [Compound 144b] ?
RESULT: 1

A: Nc1ncnc2c1ncn2[C@@H]1C[C@@H]2COP(=O)(O)OC3C[C@H](n4cnc5c(N)ncnc54)O[C@@H]3COP(=O)(O)OC2C1F (some centres unmarked) [Compound 124]
B: CC(C)OC(=O)OCOP1(=O)OC[C@H]2O[C@@H](n3cnc4c(N)ncnc43)C(F)C2OP(=O)(OCOC(=O)OC(C)C)OC[C@H]2C[C@@H](n3cnc4c(N)ncnc43)C(F)C2O1 (some centres unmarked) [Compound 143b]
C: Nc1ncnc2c1ncn2[C@@H]1C[C@@H]2COP(=O)(S)OC3C(F)[C@H](n4cnc5c(N)ncnc54)O[C@@H]3COP(=O)(S)OC2C1F (single isomer, unassigned) [Compound 102a]
QUERY: List from greatest to least EC50. Show the ranking through the labels, in the order asked for.
RESULT: A, C, B

---

target: WT STING (Homo sapiens, UniProt Q86WV6, H232R); assay: Digitonin assay using 293T wtSTING-FL reporter cells; type: cell-based; parameters: host or cells: 293T (ATCC CRL-3216), stably transfected, with 4xISRE firefly luciferase reporter; conditions: 293T wtSTING-FL cells, ISRE firefly luciferase; compounds in Digitonin buffer 30 minutes, then 5 hours; 8-point curve
measured endpoint: EC50 (nM)

Example entries and their recorded answers appear below.
QUERY: Request - read-out EC50 | tested on WT STING (Homo sapiens, UniProt Q86WV6, H232R) | molecule Nc1nc2c(ncn2[C@@H]2C[C@@H]3COP(=O)(O)OC4C(F)[C@H](n5cnc6c(N)ncnc65)O[C@@H]4COP(=O)(O)OC3C2O)c(=O)[nH]1 (single isomer, unassigned) [Compound 103]
RESULT: 10

QUERY: Request - read-out EC50 | tested on WT STING (Homo sapiens, UniProt Q86WV6, H232R) | molecule Nc1ncnc2c1ncn2[C@@H]1C[C@@H]2COP(=O)(O)O[C@H]3[C@@H](F)[C@H](n4cnc5c(N)ncnc54)O[C@@H]3COP(=O)(O)O[C@H]2[C@@H]1F [Compound 127]
RESULT: 100

QUERY: Request - read-out EC50 | tested on WT STING (Homo sapiens, UniProt Q86WV6, H232R) | molecule Nc1nc2c(ncn2[C@@H]2O[C@@H]3COP(=O)(S)OC4C(F)[C@H](n5cnc6c(N)ncnc65)C[C@@H]4COP(=O)(S)OC3C2F)c(=O)[nH]1 (some centres unmarked) [Compound 132b]
RESULT: 10

QUERY: Request - read-out EC50 | tested on WT STING (Homo sapiens, UniProt Q86WV6, H232R) | molecule Nc1ncnc2c1ncn2[C@@H]1C[C@@H]2COP(=O)(S)O[C@@H]3[C@@H](COP(=O)(S)O[C@H]2[C@H]1F)C[C@@H](n1cnc2c(N)ncnc21)[C@@H]3F (single isomer, unassigned) [Compound 128b]
RESULT: 10

QUERY: Request - read-out EC50 | tested on WT STING (Homo sapiens, UniProt Q86WV6, H232R) | molecule Nc1ncnc2c1ncn2[C@@H]1C[C@@H]2COP(=O)(O)OC3C(F)[C@H](n4cnc5c(N)ncnc54)O[C@@H]3COP(=O)(O)OC2C1F (some centres unmarked) [Compound 120]
RESULT: 10

QUERY: Request - read-out EC50 | tested on WT STING (Homo sapiens, UniProt Q86WV6, H232R) | molecule Nc1ncnc2c1ncn2[C@@H]1C[C@@H]2COP(=O)(S)OC3C(F)[C@H](n4cnc5c(N)ncnc54)O[C@@H]3COP(=O)(S)OC2C1F (single isomer, unassigned) [Compound 102d]
RESULT: 10

QUERY: Request - read-out EC50 | tested on WT STING (Homo sapiens, UniProt Q86WV6, H232R) | molecule Nc1ncnc2c1ncn2[C@@H]1C[C@@H]2COP(=O)(S)OC3C(F)[C@H](n4cnc5c(N)ncnc54)O[C@@H]3COP(=O)(S)OC2C1F (single isomer, unassigned) [Compound 102b]
RESULT: 5

QUERY: Request - read-out EC50 | tested on WT STING (Homo sapiens, UniProt Q86WV6, H232R) | molecule Nc1ncnc2c1ncn2[C@@H]1C[C@@H]2COP(=O)(S)OC3C[C@H](n4cnc5c(N)ncnc54)O[C@@H]3COP(=O)(S)OC2C1F (single isomer, unassigned) [Compound 142b]
RESULT: 20

A: Nc1ncnc2c1ncn2[C@H]1CC2OP(=O)(O)OC[C@H]3O[C@@H](n4cnc5c(N)ncnc54)C(F)C3OP(=O)(O)OC[C@H]2C1 (some centres unmarked) [Compound 119]
B: Nc1nc2c(ncn2[C@@H]2C[C@@H]3COP(=O)(S)O[C@H]4[C@@H](F)[C@H](n5cnc6c(N)ncnc65)O[C@@H]4COP(=O)(S)O[C@H]3C2)c(=O)[nH]1 (single isomer, unassigned) [Compound 129d]
C: Nc1nc2c(ncn2[C@H]2CC3OP(=O)(S)OC[C@H]4O[C@@H](n5cnc6c(N)ncnc65)C(F)C4OP(=O)(S)OC[C@H]3C2)c(=O)[nH]1 (single isomer, unassigned) [Compound 129b]
QUERY: List from greatest to least EC50. Show the ranking through the labels, in the order asked for.
RESULT: C, A, B

I: Nc1nc2c(ncn2[C@@H]2C[C@@H]3COP(=O)(O)O[C@H]4[C@@H](O)[C@H](n5cnc6c(N)ncnc65)O[C@@H]4COP(=O)(O)O[C@H]3[C@H]2O)c(=O)[nH]1 [Compound 101]
II: Nc1nc2c(ncn2[C@@H]2O[C@@H]3COP(=O)(O)O[C@H]4[C@@H](O)[C@H](n5cnc6c(=O)[nH]c(N)nc65)O[C@@H]4COP(=O)(O)O[C@H]3[C@H]2O)c(=O)[nH]1 [3′3′c-di-GMP, reference compound]
III: Nc1ncnc2c1ncn2[C@H]1CC2OP(=O)(O)OC[C@H]3O[C@@H](n4cnc5c(N)ncnc54)CC3OP(=O)(O)OC[C@H]2C1 (some centres unmarked) [Compound 126]
IV: Nc1ncnc2c1ncn2[C@H]1CC2OP(=O)(O)OC[C@H]3C[C@@H](n4cnc5c(N)ncnc54)CC3OP(=O)(O)OC[C@H]2C1 (some centres unmarked) [Compound 125]
QUERY: Could you please order the items by EC50, going from the lowest number to the highest? Show the ranking through the labels, in the order asked for.
RESULT: I, III, II, IV
(I: 800 nM, III: 1800 nM, II: 5800 nM, IV: 13200 nM)

a: Nc1nc2c(ncn2[C@@H]2C[C@@H]3COP(=O)(S)O[C@H]4[C@@H](F)[C@H](n5cnc6c(N)ncnc65)O[C@@H]4COP(=O)(S)O[C@H]3C2)c(=O)[nH]1 (single isomer, unassigned) [Compound 129c]
b: Nc1ncnc2c1ncn2[C@@H]1C[C@@H]2COP(=O)(S)OC3C(F)[C@H](n4cnc5c(N)ncnc54)O[C@@H]3COP(=O)(S)OC2C1F (single isomer, unassigned) [Compound 102c]
c: COC1C2OP(=O)(O)OC[C@H]3C[C@@H](n4cnc5c(N)ncnc54)C(O)C3OP(=O)(O)OC[C@H]2O[C@H]1n1cnc2c(=O)[nH]c(N)nc21 (some centres unmarked) [Compound 114]
d: Nc1nc2c(ncn2[C@@H]2C[C@@H]3COP(=O)(O)OC4C(F)[C@H](n5cnc6c(N)ncnc65)O[C@@H]4COP(=O)(O)OC3C2O)c(=O)[nH]1 (single isomer, unassigned) [Compound 105]
QUERY: List from greatest to least EC50. Show the ranking through the labels, in the order asked for.
RESULT: c, d, a, b
(c: 21800 nM, d: 1600 nM, a: 400 nM, b: 10 nM)
